Reference source for all entries: PubChem BioAssay AID1918949

Tested on: K24384-001-R-PDC complex spheroid viability;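 also: spheroids exposed to agents for seven days before luminescence viability reading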
Experiment: Anticancer human tumor K24384-001-R-PDC patient-derived pancreatic adenocarcinoma cell line growth inhibition
Settings: curve of first compound; second compound 1 µM
Just a reminder that ties go to not met: only IC50 strictly below 20 nM counts as met.

Examples from the recorded data:
CC(C)CC(NC(=O)C(Cc1ccccc1)NC(=O)c1cnccn1)B(O)O (stereo not given) + NC1CCC(NC2CC2c2ccccc2)CC1: met
CCN(c1cc(-c2ccc(CN3CCOCC3)cc2)cc(C(=O)NCc2c(C)cc(C)[nH]c2=O)c1C)C1CCOCC1 + NC1CCC(NC2CC2c2ccccc2)CC1: not met
CCc1c2c(nc3ccc(O)cc13)-c1cc3c(c(=O)n1C2)COC(=O)[C@]3(O)CC + NC1CCC(NC2CC2c2ccccc2)CC1: met
Nc1ncn(C2CC(O)C(CO)O2)c(=O)n1 (stereo not given) + NC1CC1c1ccc(-c2cccc(O)c2)cc1: not met

Lab note: confirm whether the reported IC50 for this compound is below 20 nM, equality not counting. compound: CC1COCCN1c1cc(-c2ccnn2C)c2ccnc(-c3ccn[nH]3)c2n1 (stereo not given) + NC1CC1c1ccc(-c2cccc(O)c2)cc1 met

Lab note: confirm whether the reported IC50 for this compound is below 20 nM, equality not counting. compound: O=C(C=Cc1cccc(S(=O)(=O)Nc2ccccc2)c1)NO + NC1CCC(NC2CC2c2ccccc2)CC1 not met

Lab note: confirm whether the reported IC50 for this compound is below 20 nM, equality not counting. compound: CCc1c2c(nc3ccc(O)cc13)-c1cc3c(c(=O)n1C2)COC(=O)[C@]3(O)CC + NC1CC1c1ccc(-c2cccc(O)c2)cc1 met

Lab note: confirm whether the reported IC50 for this compound is below 20 nM, equality not counting. compound: Nc1ccccc1NC(=O)c1ccc(CNC(=O)OCc2cccnc2)cc1 + NC1CC1c1ccc(-c2cccc(O)c2)cc1 not met

Lab note: confirm whether the reported IC50 for this compound is below 20 nM, equality not counting. compound: O=C(c1cc(Cc2n[nH]c(=O)c3ccccc23)ccc1F)N1CCN(C(=O)C2CC2)CC1 + NC1CC1c1ccc(-c2cccc(O)c2)cc1 not met

Lab note: confirm whether the reported IC50 for this compound is below 20 nM, equality not counting. compound: Nc1ncn(C2CC(O)C(CO)O2)c(=O)n1 (stereo not given) + NC1CCC(NC2CC2c2ccccc2)CC1 not met

Lab note: confirm whether the reported IC50 for this compound is below 20 nM, equality not counting. compound: COc1cc(C2c3cc4c(cc3C(OC3OC5COC(C)OC5C(O)C3O)C3COC(=O)C23)OCO4)cc(OC)c1O (stereo not given) + NC1CC1c1ccc(-c2cccc(O)c2)cc1 not met

Lab note: confirm whether the reported IC50 for this compound is below 20 nM, equality not counting. compound: CC1COCCN1c1cc(-c2ccnn2C)c2ccnc(-c3ccn[nH]3)c2n1 (stereo not given) + NC1CCC(NC2CC2c2ccccc2)CC1 met

Lab note: confirm whether the reported IC50 for this compound is below 20 nM, equality not counting. compound: CC(C)CC(NC(=O)C(Cc1ccccc1)NC(=O)c1cnccn1)B(O)O (stereo not given) + NC1CC1c1ccc(-c2cccc(O)c2)cc1 met

Lab note: confirm whether the reported IC50 for this compound is below 20 nM, equality not counting. compound: O=C(C=Cn1cnc(-c2cc(C(F)(F)F)cc(C(F)(F)F)c2)n1)NNc1cnccn1 + NC1CCC(NC2CC2c2ccccc2)CC1 not met

Lab note: confirm whether the reported IC50 for this compound is below 20 nM, equality not counting. compound: CC(C)CC(NC(=O)CNC(=O)c1cc(Cl)ccc1Cl)B1OC(=O)CC(CC(=O)O)(C(=O)O)O1 (stereo not given) + NC1CCC(NC2CC2c2ccccc2)CC1 met
